Target Entity: Oxoeicosanoid receptor 1 (Homo sapiens, UniProt Q8TDS5)
Sequence (Q8TDS5 whole entry, the tested form may be a part): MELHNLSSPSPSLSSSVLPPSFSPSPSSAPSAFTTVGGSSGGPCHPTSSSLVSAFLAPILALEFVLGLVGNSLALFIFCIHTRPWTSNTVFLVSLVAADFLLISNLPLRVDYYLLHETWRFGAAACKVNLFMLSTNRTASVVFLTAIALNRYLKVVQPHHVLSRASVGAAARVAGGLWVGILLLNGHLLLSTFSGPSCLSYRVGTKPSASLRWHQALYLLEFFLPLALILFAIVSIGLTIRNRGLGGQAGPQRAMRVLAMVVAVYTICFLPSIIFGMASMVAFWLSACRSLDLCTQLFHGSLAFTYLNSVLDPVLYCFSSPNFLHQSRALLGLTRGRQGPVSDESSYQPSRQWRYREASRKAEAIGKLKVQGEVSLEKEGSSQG
Measurement Notes: Agonist activity at human PK-tagged OXER1 expressed in CHOK1 cells assessed as EA-tagged beta-arrestin recruitment by beta-galactosidase enzyme fragment complementation assay relative to control
Format: functional, cell-based
Measure: Emax (%)

The cases that follow already have their Emax on record.
CCCCC/C=C\C/C=C\C/C=C\C=C\C(=O)CCCC(=O)O
100
CCCCC/C=C\C/C=C\C/C=C\C=C\C(=O)CCCC(=O)OC
133

a: CC/C=C\C/C=C\C/C=C\C/C=C\C/C=C\C=C\C(=O)CCC(=O)OC
b: CC/C=C\C/C=C\C/C=C\C/C=C\C=C\C(=O)CCCC(=O)OC
c: CC/C=C\C/C=C\C/C=C\C/C=C\C/C=C\C=C\C(=O)CCC(=O)O
Order by Emax, ascending. I'd appreciate it if you listed the labels in the requested order. c, a, b
(c: 23%, a: 64%, b: 119%)
